Sourced from ChEMBL document CHEMBL4689842

Population Apoptotic (%) values, listed per item
- Test system: Fibroblast
- testName: Multiplex assay against human fibroblast
- Type: toxicity, cell-based
- protocolConditions: 24 h, 10 µM, compound concentration 10 uM, replicate 2

{"molecule": "c1cn2cc(-c3ccc4cn[nH]c4c3)nc(Nc3ccc(N4CCOCC4)cc3)c2n1 [ENTOSPLETINIB]", "Population Apoptotic (%)": 89}
{"molecule": "C[C@@H](NCCCc1cccc(C(F)(F)F)c1)c1cccc2ccccc12.Cl [CINACALCET HYDROCHLORIDE]", "Population Apoptotic (%)": 92}
{"molecule": "O=C1NCN(c2ccccc2)C12CCN(CCCOc1ccc(F)cc1)CC2 [SPIRAMIDE]", "Population Apoptotic (%)": 27}
{"molecule": "C=CC(=O)Nc1cc2c(Nc3ccc(F)c(Cl)c3)ncnc2cc1OCCCN1CCOCC1.Cl.Cl [CANERTINIB DIHYDROCHLORIDE]", "Population Apoptotic (%)": 50}
{"molecule": "OC1(c2ccc(Cl)cc2)CCN(Cc2c[nH]c3ccccc23)CC1", "Population Apoptotic (%)": 66}
{"molecule": "Cc1c(-c2ccc(O)cc2)n(Cc2ccc(OCCN3CCCCCC3)cc2)c2ccc(O)cc12 [BAZEDOXIFENE]", "Population Apoptotic (%)": 68}
{"molecule": "C=CC(=O)Nc1ccc2ncnc(Nc3ccc(OCc4cccc(F)c4)c(Cl)c3)c2c1.Cc1ccc(S(=O)(=O)O)cc1", "Population Apoptotic (%)": 53}
{"molecule": "Cn1cc(-c2[nH]c3cc(NC(=O)[C@H](N)C4CCCCC4)cc4c3c2C=NNC4=O)cn1", "Population Apoptotic (%)": 86}
